# system.tested: Muscarinic acetylcholine receptor M1 (Homo sapiens)
# test.method.notes: Agonist activity at human muscarinic M1 receptor expressed in CHONFAT cells assessed as enhancement of acetylcholine-induced calcium mobilization preincubated for 4 mins measured after 1 hr by FLIPR assay
# Format: functional, cell-based
Some compounds, each annotated with its measured IP.
Please reply with the bare figure in nM and do not write the unit itself.

Would you kindly share the measured IP for `Cc1cccnc1C1(C#N)CCN(Cc2cc(C(=O)O)c(=O)n3ccccc23)CC1` ?
1940

So what's the measured IP for this one? `N#CC1(c2cc(-c3ccccc3)ccn2)CCN(Cc2cc(C(=O)O)c(=O)n3ccccc23)CC1`
659

Returns the measured IP for the input compound. Input: `N#CC1(c2cccc(F)c2)CCN(Cc2cc(C(=O)O)c(=O)n3ccccc23)CC1`
562

Please give the measured IP for this compound: `Cc1ccccc1C1(C#N)CCN(Cc2cc(C(=O)O)c(=O)n3ccccc23)CC1`
68

Any idea what its IP is? The compound is `Cc1cccc(C2(C#N)CCN(Cc3cc(C(=O)O)c(=O)n4ccccc34)CC2)c1`
88

The measured values listed here are drawn from ChEMBL document CHEMBL1799933.
